test system: LOXIMVI (Melanoma); assay: Bliss excess, mean over the matrix (fraction); higher = more synergy;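 also: after 72 h of two-drug dosing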
So basically: Bliss excess at 0.007 or higher? That is yes. Lower than 0.007? That is no.

>  <compound>
Cn1cnc2c(F)c(Nc3ccc(Br)cc3Cl)c(C(=O)NOCCO)cc21 [Selumetinib] + CCN(CCO)CCCOc1ccc2c(Nc3cc(CC(=O)Nc4cccc(F)c4)[nH]n3)ncnc2c1 [AZD2811] (first compound max 10 µM, 7x7, partner max 1 µM)

>  <assay-system>
LOXIMVI (Melanoma)

>  <assigned-label>
yes

$$$$
>  <compound>
Cc1c2c(nn1C)CSCc1cc(n(C)n1)CSc1cc(c3ccccc3c1)OCCCc1c(C(=O)O)n(C)c3c-2c(Cl)ccc13 [AZD5991] + C=CCn1c(=O)c2cnc(Nc3ccc(N4CCN(C)CC4)cc3)nc2n1-c1cccc(C(C)(C)O)n1 [AZD1775] (first compound max 1 µM, partner max 1 µM)

>  <assay-system>
LOXIMVI (Melanoma)

>  <assigned-label>
no

$$$$
>  <compound>
COc1cccc2c1C(=O)c1c(O)c3c(c(O)c1C2=O)C[C@@](O)(C(=O)CO)C[C@@H]3O[C@H]1C[C@H](N)[C@H](O)[C@H](C)O1 [Doxorubicin] + Cc1cc2ncnn2cc1Nc1ncc2c(n1)n(C1CCOCC1)c(=O)n2C [AZD7648] (first compound max 1 µM, 7x7, partner max 10 µM)

>  <assay-system>
LOXIMVI (Melanoma)

>  <assigned-label>
yes

$$$$
>  <compound>
CN(CCO)CC[C@H](CSc1ccccc1)Nc1ccc(S(=O)(=O)NC(=O)c2ccc(N3CCC([C@@H](O)c4ccccc4-c4ccc(Cl)cc4)CC3)cc2)cc1S(=O)(=O)C(F)(F)F [AZD4320] + Cc1cc2ncnn2cc1Nc1ncc2c(n1)n(C1CCOCC1)c(=O)n2C [AZD7648] (first compound max 1 µM, 7x7, partner max 10 µM)

>  <assay-system>
LOXIMVI (Melanoma)

>  <assigned-label>
yes

$$$$
>  <compound>
NC1(C(=O)N[C@@H](CCO)c2ccc(Cl)cc2)CCN(c2ncnc3[nH]ccc23)CC1 [Capivasertib] + CCN(CCO)CCCOc1ccc2c(Nc3cc(CC(=O)Nc4cccc(F)c4)[nH]n3)ncnc2c1 [AZD2811] (first compound max 10 µM, 7x7, partner max 1 µM)

>  <assay-system>
LOXIMVI (Melanoma)

>  <assigned-label>
no

$$$$
>  <compound>
CC1(C)CCC(CN2CCN(c3ccc(C(=O)NS(=O)(=O)c4ccc(NCC5CCOCC5)c([N+](=O)[O-])c4)c(Oc4cnc5[nH]ccc5c4)c3)CC2)=C(c2ccc(Cl)cc2)C1 [Venetoclax] + CCN(CCO)CCCOc1ccc2c(Nc3cc(CC(=O)Nc4cccc(F)c4)[nH]n3)ncnc2c1 [AZD2811] (first compound max 1 µM, 7x7, partner max 1 µM)

>  <assay-system>
LOXIMVI (Melanoma)

>  <assigned-label>
yes

$$$$

* * *

test system: HH (T-Cell Non-Hodgkin's Lymphoma); assay: Bliss excess, mean over the matrix (fraction); higher = more synergy
So basically: Bliss excess at -0.02 or higher? That is Met. Lower than -0.02? That is Not met.

>  <molecule>
CC1(C)CCC(CN2CCN(c3ccc(C(=O)NS(=O)(=O)c4ccc(NCC5CCOCC5)c([N+](=O)[O-])c4)c(Oc4cnc5[nH]ccc5c4)c3)CC2)=C(c2ccc(Cl)cc2)C1 [Venetoclax] + C=CCn1c(=O)c2cnc(Nc3ccc(N4CCN(C)CC4)cc3)nc2n1-c1cccc(C(C)(C)O)n1 [AZD1775] (first compound max 1 µM, partner max 1 µM)

>  <assay-system>
HH (T-Cell Non-Hodgkin's Lymphoma)

>  <assigned-label>
Met

$$$$
>  <molecule>
CC1(C)CCC(CN2CCN(c3ccc(C(=O)NS(=O)(=O)c4ccc(NCC5CCOCC5)c([N+](=O)[O-])c4)c(Oc4cnc5[nH]ccc5c4)c3)CC2)=C(c2ccc(Cl)cc2)C1 [Venetoclax] + CCN(CCO)CCCOc1ccc2c(Nc3cc(CC(=O)Nc4cccc(F)c4)[nH]n3)ncnc2c1 [AZD2811] (first compound max 1 µM, 7x7, partner max 1 µM)

>  <assay-system>
HH (T-Cell Non-Hodgkin's Lymphoma)

>  <assigned-label>
Met

$$$$
>  <molecule>
CC1(C)CCC(CN2CCN(c3ccc(C(=O)NS(=O)(=O)c4ccc(NCC5CCOCC5)c([N+](=O)[O-])c4)c(Oc4cnc5[nH]ccc5c4)c3)CC2)=C(c2ccc(Cl)cc2)C1 [Venetoclax] + CN(C)CCCOc1ccc(-c2ccc3ncc4c(c3c2)n(C2CCOCC2)c(=O)n4C)cn1 [AZD0156] (first compound max 1 µM, 7x7, partner max 1 µM)

>  <assay-system>
HH (T-Cell Non-Hodgkin's Lymphoma)

>  <assigned-label>
Met

$$$$
>  <molecule>
CCc1c2c(nc3ccc(O)cc13)-c1cc3c(c(=O)n1C2)COC(=O)[C@]3(O)CC [SN-38] + O=C(c1cc(Cc2n[nH]c(=O)c3ccccc23)ccc1F)N1CCN(C(=O)C2CC2)CC1 [Olaparib] (first compound max 0.3 µM, 7x7, partner max 10 µM)

>  <assay-system>
HH (T-Cell Non-Hodgkin's Lymphoma)

>  <assigned-label>
Not met

$$$$
>  <molecule>
CN(CCO)CC[C@H](CSc1ccccc1)Nc1ccc(S(=O)(=O)NC(=O)c2ccc(N3CCC([C@@H](O)c4ccccc4-c4ccc(Cl)cc4)CC3)cc2)cc1S(=O)(=O)C(F)(F)F [AZD4320] + CS(=O)(=O)CCNCc1ccc(-c2ccc3ncnc(Nc4ccc(OCc5cccc(F)c5)c(Cl)c4)c3c2)o1 [Lapatinib] (first compound max 1 µM, 7x7, partner max 10 µM)

>  <assay-system>
HH (T-Cell Non-Hodgkin's Lymphoma)

>  <assigned-label>
Met

$$$$
>  <molecule>
CN(C)CCCOc1ccc(-c2ccc3ncc4c(c3c2)n(C2CCOCC2)c(=O)n4C)cn1 [AZD0156] + O=C(c1cc(Cc2n[nH]c(=O)c3ccccc23)ccc1F)N1CCN(C(=O)C2CC2)CC1 [Olaparib] (first compound max 3 µM, partner max 3 µM)

>  <assay-system>
HH (T-Cell Non-Hodgkin's Lymphoma)

>  <assigned-label>
Not met

$$$$
>  <molecule>
Cn1cnc2c(F)c(Nc3ccc(Br)cc3Cl)c(C(=O)NOCCO)cc21 [Selumetinib] + CC(C)n1c(=O)n(C)c2cnc3cc(F)c(-c4ccc(OCCCN5CCCCC5)nc4)cc3c21 [AZD1390] (first compound max 10 µM, 7x7, partner max 0.3 µM)

>  <assay-system>
HH (T-Cell Non-Hodgkin's Lymphoma)

>  <assigned-label>
Not met

$$$$
>  <molecule>
Cc1nc(Nc2ncc(C(=O)Nc3c(C)cccc3Cl)s2)cc(N2CCN(CCO)CC2)n1 [Dasatinib] + CC(=O)Nc1cccc(-n2c(=O)n(C3CC3)c(=O)c3c(Nc4ccc(I)cc4F)n(C)c(=O)c(C)c32)c1 [Trametinib] (first compound max 2 µM, 7x7, partner max 1 µM)

>  <assay-system>
HH (T-Cell Non-Hodgkin's Lymphoma)

>  <assigned-label>
Met

$$$$
>  <molecule>
NC1(C(=O)N[C@@H](CCO)c2ccc(Cl)cc2)CCN(c2ncnc3[nH]ccc23)CC1 [Capivasertib] + CC(C)n1c(=O)n(C)c2cnc3cc(F)c(-c4ccc(OCCCN5CCCCC5)nc4)cc3c21 [AZD1390] (first compound max 10 µM, 7x7, partner max 0.3 µM)

>  <assay-system>
HH (T-Cell Non-Hodgkin's Lymphoma)

>  <assigned-label>
Not met

$$$$
>  <molecule>
CN(CCO)CC[C@H](CSc1ccccc1)Nc1ccc(S(=O)(=O)NC(=O)c2ccc(N3CCC([C@@H](O)c4ccccc4-c4ccc(Cl)cc4)CC3)cc2)cc1S(=O)(=O)C(F)(F)F [AZD4320] + Nc1ccn([C@@H]2O[C@H](CO)[C@@H](O)C2(F)F)c(=O)n1 [Gemcitabine] (first compound max 1 µM, 7x7, partner max 0.3 µM)

>  <assay-system>
HH (T-Cell Non-Hodgkin's Lymphoma)

>  <assigned-label>
Met

$$$$
>  <molecule>
COc1nnc2ccc(N3CCC(c4ccc(OCCN5CCN(C)C(=O)[C@H]5C)cc4)CC3)nn12 [AZD5153] + Cn1cnc2c(F)c(Nc3ccc(Br)cc3Cl)c(C(=O)NOCCO)cc21 [Selumetinib] (first compound max 1 µM, 7x7, partner max 10 µM)

>  <assay-system>
HH (T-Cell Non-Hodgkin's Lymphoma)

>  <assigned-label>
Not met

$$$$
>  <molecule>
N#Cc1cnc(Nc2cc(NC[C@H]3CNCCO3)c(C(F)(F)F)cn2)cn1 [SRA737] + CCc1c2c(nc3ccc(O)cc13)-c1cc3c(c(=O)n1C2)COC(=O)[C@]3(O)CC [SN-38] (first compound max 10 µM, 7x7, partner max 0.3 µM)

>  <assay-system>
HH (T-Cell Non-Hodgkin's Lymphoma)

>  <assigned-label>
Met

$$$$
>  <molecule>
CN(CCO)CC[C@H](CSc1ccccc1)Nc1ccc(S(=O)(=O)NC(=O)c2ccc(N3CCC([C@@H](O)c4ccccc4-c4ccc(Cl)cc4)CC3)cc2)cc1S(=O)(=O)C(F)(F)F [AZD4320] + C[C@@H](Nc1cc(F)cc(F)c1)c1cc(C(=O)N(C)C)cc2c(=O)cc(N3CCOCC3)oc12 [AZD8186] (first compound max 1 µM, 7x7, partner max 3 µM)

>  <assay-system>
HH (T-Cell Non-Hodgkin's Lymphoma)

>  <assigned-label>
Met

$$$$
>  <molecule>
CCN(CCO)CCCOc1ccc2c(Nc3cc(CC(=O)Nc4cccc(F)c4)[nH]n3)ncnc2c1 [AZD2811] + C[C@@H]1COCCN1C2=NC(=NC(=C2)C3(CC3)[S@](=N)(=O)C)C4=C5C=CNC5=NC=C4 [AZD6738] (first compound max 1 µM, 7x7, partner max 10 µM)

>  <assay-system>
HH (T-Cell Non-Hodgkin's Lymphoma)

>  <assigned-label>
Not met

$$$$
>  <molecule>
C[C@@H]1COCCN1c1cc(C2([S@](C)(=N)=O)CC2)nc(-c2ccnc3[nH]ccc23)n1 [AZD6738] + Nc1ccn([C@@H]2O[C@H](CO)[C@@H](O)C2(F)F)c(=O)n1 [Gemcitabine] (first compound max 10 µM, 7x7, partner max 0.3 µM)

>  <assay-system>
HH (T-Cell Non-Hodgkin's Lymphoma)

>  <assigned-label>
Met

$$$$

Reference source for all entries: the supplement of paper PMC11061612
